Biological target: Human LPA3 (Homo sapiens, UniProt Q9UBY5)
Construct: The full-length cDNA fragment for human LPA3 was obtained by PCR from the vector; cDNA from the Missouri S&T cDNA Resource Center
Sequence (Q9UBY5 whole entry, the tested form may be a part): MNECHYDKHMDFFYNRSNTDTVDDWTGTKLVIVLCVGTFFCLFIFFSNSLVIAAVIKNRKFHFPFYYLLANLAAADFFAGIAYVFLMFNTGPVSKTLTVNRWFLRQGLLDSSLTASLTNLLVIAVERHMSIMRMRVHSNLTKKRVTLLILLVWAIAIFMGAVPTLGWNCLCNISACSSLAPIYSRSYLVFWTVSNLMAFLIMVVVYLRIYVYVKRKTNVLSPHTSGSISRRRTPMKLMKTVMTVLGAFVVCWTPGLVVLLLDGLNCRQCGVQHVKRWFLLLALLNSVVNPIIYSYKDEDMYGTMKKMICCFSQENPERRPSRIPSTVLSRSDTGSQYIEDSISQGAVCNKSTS
Assay: LPA3 calcium flux assay
Settings: CHO cells expressing human LPA3, 10 nM LPA; read-out: Ca Flux IC50 LPA3
pIC50: −log10 of the molar value.
assay.endpoint: pIC50

Before answering, review these 3 worked examples.
- smiles.code: "C[C@@H](OC(=O)Nc1cnoc1-c1ccc(-c2ccc(C3(C(=O)O)CC3)cc2)cc1)c1ccccc1"
  pIC50: "< 6.00"
- smiles.code: "Cc1noc(-c2ccc(-c3ccc(C4(C(=O)O)CC4)cc3)cc2)c1NC(=O)O[C@H](C)c1ccccc1Cl"
  pIC50: "6.00 to 6.70"
- smiles.code: "Cc1noc(-c2ccc(-c3ccc(C4(c5nc(=O)o[nH]5)CC4)cc3)cc2)c1NC(=O)O[C@H](C)c1ccccc1"
  pIC50: "< 6.00"

Let's switch to this compound now.
[ask] Determine from records and report pIC50 for Cc1noc(-c2ccc(-c3ccc(C4(c5nnn[nH]5)CC4)cc3)cc2)c1NC(=O)O[C@H](C)c1ccccc1
[reply] < 6.00
